- assayedSystem: T1, cynomolgus serum albumin (cynomolgus)
- T1 construct: also called CSA; cyno serum albumin
- T1 sequence (A2V9Z4 25-608): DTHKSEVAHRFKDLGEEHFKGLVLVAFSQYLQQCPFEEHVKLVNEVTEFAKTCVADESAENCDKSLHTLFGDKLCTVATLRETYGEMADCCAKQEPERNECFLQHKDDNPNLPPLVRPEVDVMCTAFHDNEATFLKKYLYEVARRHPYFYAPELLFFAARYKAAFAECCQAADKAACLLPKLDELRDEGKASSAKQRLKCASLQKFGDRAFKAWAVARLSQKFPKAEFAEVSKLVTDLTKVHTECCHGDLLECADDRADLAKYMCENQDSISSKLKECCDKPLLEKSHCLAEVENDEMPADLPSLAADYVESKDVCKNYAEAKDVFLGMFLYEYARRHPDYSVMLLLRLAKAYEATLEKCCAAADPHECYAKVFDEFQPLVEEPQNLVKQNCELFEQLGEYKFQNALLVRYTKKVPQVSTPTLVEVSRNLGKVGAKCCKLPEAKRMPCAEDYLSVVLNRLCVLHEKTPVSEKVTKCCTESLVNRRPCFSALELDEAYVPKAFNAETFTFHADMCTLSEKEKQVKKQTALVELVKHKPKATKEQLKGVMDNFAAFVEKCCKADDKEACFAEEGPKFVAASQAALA
- assay: BLI (Octet), biotinylated albumin on SA sensor, pH 6.0
pKd: −log10 of the molar value.
valueKind: pKd

binder	pKd
HSA-20 (designed binder) MIPRGLSEAKPATPEIQEIVDKVKPQLEEKTNETYGKLEAVQYKTQVLAGYWAAKWPGSTNYYIKVRAGDNKYMHLKVFNGPFPNTSYDLQADRVLTGYQVDKNKDDELTGFHHHHHH	6.88
HSA-22 (designed binder) MIPRGLSEAKPATPEIQEIVDKVKPQLEEKTNETYGKLEAVQYKTQVLANWYQQRWPGSTNYYIKVRAGDNKYMHLKVFNGPWHNYGESSGADRVLTGYQVDKNKDDELTGFHHHHHH	6.84
HSA-37 (designed binder) MIPRGLSEAKPATPEIQEIVDKVKPQLEEKTNETYGKLEAVQYKTQVLAGFWASKWPGSTNYYIKVRAGDNKYMHLKVFNGPFTAVSKKDAADRVLTGYQVDKNKDDELTGFHHHHHH	6.64

(P) HSA-31 (designed binder) MIPRGLSEAKPATPEIQEIVDKVKPQLEEKTNETYGKLEAVQYKTQVLAVWGPEYQHQSTNYYIKVRAGDNKYMHLKVFNGPNAGWPLVPEADRVLTGYQVDKNKDDELTGFHHHHHH
(Q) HSA-41 (designed binder, also called HSA-41 parent; HSA-41 AH parent) MIPRGLSEAKPATPEIQEIVDKVKPQLEEKTNETYGKLEAVQYKTQVLANFFQRRWPGSTNYYIKVRAGDNKYMHLKVFNGPWKFRNTDRGADRVLTGYQVDKNKDDELTGFHHHHHH
(R) HSA-36 (designed binder) MIPRGLSEAKPATPEIQEIVDKVKPQLEEKTNETYGKLEAVQYKTQVLAGHYARYWPGSTNYYIKVRAGDNKYMHLKVFNGPWAQKSKVHQADRVLTGYQVDKNKDDELTGFHHHHHH
Ascending sort, pKd. In your reply, arrange the labels in the requested order.
R, Q, P
(R: 5.94, Q: 6.98, P: 7.73)
